molecular target: equine FcRn complex (equine) (UniProt F6XZ61); experiment: SPR (Biacore 8K+), pH 5.9, 25 C; FcRn captured by anti-His, IgG as analyte; 1:1 kinetic model
Sequence (chain, as listed by the source, chain 1 of 2): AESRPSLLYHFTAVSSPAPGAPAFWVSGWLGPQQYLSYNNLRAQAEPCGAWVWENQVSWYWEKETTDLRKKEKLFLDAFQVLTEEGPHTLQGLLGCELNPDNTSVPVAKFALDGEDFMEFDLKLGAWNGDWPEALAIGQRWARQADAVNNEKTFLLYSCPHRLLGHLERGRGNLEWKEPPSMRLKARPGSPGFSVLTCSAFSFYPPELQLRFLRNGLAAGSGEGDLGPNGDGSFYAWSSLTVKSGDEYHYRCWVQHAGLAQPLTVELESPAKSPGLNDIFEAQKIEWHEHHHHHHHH
Sequence (P30441 other isoform, or with tags, fused parts or gaps, chain 2 of 2): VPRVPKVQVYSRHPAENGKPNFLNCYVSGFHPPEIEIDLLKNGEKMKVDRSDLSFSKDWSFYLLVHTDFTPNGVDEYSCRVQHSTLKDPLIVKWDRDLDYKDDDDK
measurement.kind: Kd (nM)
Reply with just the number (in nM).

Sample records with Kd:
binder	reported.result
Equine Q309V (antibody, part only; not given: variable domains, light chain, IgG1, not shown: another chain or arm of the molecule) Fc: APELLGGPSVFIFPPNPKDTLMITRTPEVTCVVVDVSQENPDVKFNWYMDGVEVRTATTRPKEEQFNSTYRVVSVLRIVHQDWLSGKEFKCKVNNQALPQPIERTITKTKGRSQEPQVYVLAPHPDELSKSKVSVTCLVKDFYPPEINIEWQSNGQPELETKYSTTQAQQDSDGSYFLYSKLSVDRNRWQQGTTFTCGVMHEALHNHYTQKNVSKNPGK	20.2
Equine M252Y (antibody, part only; not given: variable domains, light chain, IgG1, not shown: another chain or arm of the molecule) Fc: APELLGGPSVFIFPPNPKDTLYITRTPEVTCVVVDVSQENPDVKFNWYMDGVEVRTATTRPKEEQFNSTYRVVSVLRIQHQDWLSGKEFKCKVNNQALPQPIERTITKTKGRSQEPQVYVLAPHPDELSKSKVSVTCLVKDFYPPEINIEWQSNGQPELETKYSTTQAQQDSDGSYFLYSKLSVDRNRWQQGTTFTCGVMHEALHNHYTQKNVSKNPGK	71.4

As a next step, examine the binder that follows.
input: # lookup: Kd of Equine Q311V (antibody, part only; not given: variable domains and light chain, IgG1, not shown: another chain or arm of the molecule) Fc: APELLGGPSVFIFPPNPKDTLMITRTPEVTCVVVDVSQENPDVKFNWYMDGVEVRTATTRPKEEQFNSTYRVVSVLRIQHVDWLSGKEFKCKVNNQALPQPIERTITKTKGRSQEPQVYVLAPHPDELSKSKVSVTCLVKDFYPPEINIEWQSNGQPELETKYSTTQAQQDSDGSYFLYSKLSVDRNRWQQGTTFTCGVMHEALHNHYTQKNVSKNPGK
output: 35.7

Values were extracted from patent US20220177549A1.
